# Target desc: T1, human Bcl-XL-GST fusion protein (human, UniProt P08515 1-218 = GST; Q07817 1-211)
# T1 construct: Made in E. coli, immobilized on glutathione Sepharose beads; whole entry named; also called Bcl-XL-glutathione S-transferase (GST) fusion protein; GST-BCL-XL
# T1 sequence (P08515 1-218, tags or fused parts left off): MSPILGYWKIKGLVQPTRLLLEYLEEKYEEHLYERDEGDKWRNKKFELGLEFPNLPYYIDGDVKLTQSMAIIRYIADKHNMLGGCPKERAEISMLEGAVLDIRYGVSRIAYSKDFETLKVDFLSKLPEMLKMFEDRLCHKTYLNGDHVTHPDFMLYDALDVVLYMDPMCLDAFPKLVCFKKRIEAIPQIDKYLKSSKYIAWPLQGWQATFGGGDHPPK
# Test method notes: 35S-labeled free peptide on Bcl-XL-GST beads, target concentration varied, scintillation counting; relative Kd
Where no end group is shown, it is not given here.
Measure: Kd

INSERT INTO results (binder, value_observed) VALUES
  ('TGKEAILRRLVALLEEEAEVINQKLASDPALRSKLVRLSSDSFAHL (also called Bcl-2 related proline-rich protein BPR) [Bcl-2 related protein BPR, clone Y75]', '420 nM'),
  ('KLSECLKRIGDELDSNMELQRMIAAVDTDSPR (peptide, UniProt Q07812 58-89, looked up) [Bax, clone C49]', '760 nM'),
  ('GTRISDMLKLIADTWQRNCCPA-{FLAG‑M2 epitope} (cysteine pairing not given here; also: 35S-Met labelled in vitro translation product) [Novel protein D, clone T25]', '1610 nM'),
  ('MFSDIYGIREIADGLCLEVEGKMVSRPE [Tumor protein HDCMB21P, clone V50]', '690 nM'),
  ('MKWDTDNTLGTEISWENKLAEGLKLTLDTIFVHHVLHAPH-{FLAG‑M2 epitope} (also: 35S-Met labelled in vitro translation product) [Voltage dependent anion channel 3, clone W06]', '1120 nM');
